system: SF-268 CNS; assay: NCI tumour cell line growth inhibition, 48 h
METRIC NAME: TGI (µM)

> print(dat)
                                    compound  metric.name  measurement.qualifier  assay.value
 1    CC(C)[C@H]1CO[C@@H]2O[C@H](C)CC(=O)N21          TGI                      >          100
 2      COCOc1cc(OC)c(Br)cc1C/C(=N/O)C(=O)OC          TGI                      >          100
 3  COc1cc(/C=C2\CCCC3C2=Nc2ccccc2NC3c2cc(OC)c(OC)c(OC)c2)cc(OC)c1OC (stereo not given)          TGI                      =         71.5
 4          OC(Cc1ccccc1)(Cc1ccccc1)c1ccccc1          TGI                      =         29.8
 5          CCOC(=O)c1c(C)noc1/N=N/N(CCO)CCO          TGI                      >          100
 6  O=C1c2ccccc2C(=O)c2c(NC(=O)C(Cl)CCl)cccc21 (stereo not given)          TGI                      =           25
 7         Cc1nc2c(=O)n(C)c(=O)nc-2n(CCO)c1C          TGI                      >          100
 8  CC(N)(Cc1c[nH]c2ccccc12)C(=O)O (stereo not given)          TGI                      >         2500
 9  O=C(C[C@@]1(O)C(=O)Nc2c(Cl)ccc(Cl)c21)c1ccc(C2CC2)cc1          TGI                      =         18.5
10                        OC1CSCCCSCCSCCCSC1          TGI                      >          100
11  CCOC(=O)NC(Nc1ccc(F)c(F)c1)(C(=O)OCC)C(F)(F)F (stereo not given)          TGI                      >          100
12  CCCCC1C(=O)N(c2ccc(S(=O)(=O)Nc3ccccn3)cc2)N(c2ccc(O)c(C(=O)O)c2)C1=O (stereo not given)          TGI                      >          100
13  COc1nc2c(cc1S(=O)(=O)c1ccccc1)CCc1c-2cnn1Cc1ccccc1          TGI                      >          100
14  C=CCOc1ccc(C2(c3ccc(OCC=C)cc3)C(=O)Nc3ccccc32)cc1          TGI                      >           10
15  [C-]#[O+].[C-]#[O+].[Ir].[O-]c1ccc2ccccc2c1N=Nc1ccccc1          TGI                      =         61.5
16  C=C(C)[C@@H]1CC[C@]2(C(=O)Nc3ccccn3)CC[C@]3(C)[C@H](CC[C@@H]4[C@@]5(C)CCCNC(C)(C)[C@@H]5CC[C@]43C)[C@@H]12          TGI                      =         4.79
17           O=C(Nc1ccc(Cl)cc1F)c1cc(F)ccc1O          TGI                      =         12.1
18  CC1=C(C(=O)NNC(=O)C(N)=O)CC(C(=O)NNC(=O)C(N)=O)=C(C)N1          TGI                      >          100
19  COc1ccc2c(O)c(/C=C3\N=Nc4ncccc43)oc2c1C[C@H]1CCNC[C@H]1F          TGI                      =         10.4
20  COc1cccc2c1C(=O)c1c(O)c3c(c(O)c1C2=O)C[C@@](O)(C(=O)CO)C[C@@H]3OC1CC(OC(C)=O)C(OC(C)=O)C(C)O1 (stereo not given in full)          TGI                      =         4.46

----------
Measured TGI accompanies every entry in the list below.
tested on: OVCAR-8 ovarian; assay: NCI tumour cell line growth inhibition, 48 h
METRIC NAME: TGI

> print(dat)
                                    molecule  measured.target  assay.value
 1       COc1cc2cn3c4ccc(O)cc4nc(N)c3c2cc1OC  OVCAR-8 ovarian      12.6 µM
 2         CC(=O)Nc1ccc(-c2nc3ccccc3s2)cc1Cl  OVCAR-8 ovarian     > 100 µM
 3  COC(=O)/C=C\[C@@H]1[C@H](C)N1S(=O)(=O)c1ccc(C)cc1 (stereo partly specified)  OVCAR-8 ovarian     > 100 µM
 4  CC(NC1=NCCO1)c1cccs1 (stereo unspecified)  OVCAR-8 ovarian     > 100 µM
 5  NC(=S)N/N=C1\C(=O)N(CCc2ccccc2)C(=O)C1C(=O)NCCc1ccccc1 (stereo unspecified)  OVCAR-8 ovarian     > 100 µM
 6  CC(=O)/C(N=Nc1ccc(-n2c(C)nc3ccc(Br)cc3c2=O)cc1)=C(/C)O  OVCAR-8 ovarian     > 100 µM
 7  O=C(C[C@@]1(O)C(=O)Nc2c(Cl)ccc(Cl)c21)c1ccc(C2CC2)cc1  OVCAR-8 ovarian      19.3 µM
 8  N#CC(c1ccccc1)N(CCc1ccccc1)C(=O)c1ccccc1 (stereo unspecified)  OVCAR-8 ovarian     > 100 µM
 9  Cc1cc(C)c(S(=O)(=O)N(CCCCCCN)OCCCN)c(C)c1  OVCAR-8 ovarian      27.9 µM
10                N.N.N.N.N.N#N.[Cl-].[Os+7]  OVCAR-8 ovarian     > 100 µM
11  OC(COc1cccc2ccccc12)CN1CCN(c2ccc(Cl)cc2)CC1 (stereo unspecified)  OVCAR-8 ovarian        41 µM

----------
system: SF-539 CNS; experiment: NCI tumour cell line growth inhibition, 48 h
Param threshold (30 µM) applies to TGI; output label 1 when value >= threshold, label 0 when value < threshold.

COMPOUND	CLASS
Cc1cc(O)c(C2=NN(c3ccc(S(N)(=O)=O)cc3)C(c3ccccc3O)C2)cc1Cl (stereo unspecified)	label 0
OC12CC3c4ccccc4NC3C3Oc4cccc5c4C31CCN(CC1CC1)C2C5 (stereo unspecified)	label 1
C=CC1(c2ccccc2Cl)N/C(=C/OCC)CO1 (stereo unspecified)	label 1
O=C(O)c1c([N+](=O)[O-])cc(C(F)(F)F)cc1[N+](=O)[O-]	label 1
O=[N+]([O-])c1cccc(/C=C/c2ccccn2)c1	label 1
Cc1nc2c(=O)n(C)c(=O)nc-2n(CCO)c1C	label 1
COc1ccc(N2CCN(CN3CCN(c4ccc(OC)cc4)C3)C2)cc1	label 1
COc1ccc2[nH]c(-c3ccccc3)c(C=C(C#N)C#N)c2c1	label 0
CC(C)(C)CC(C)(C)N(CSc1ccc(Cl)cc1)CSc1ccc(Cl)cc1	label 0
Clc1ccccc1-c1nc(-c2ccncc2)no1	label 1
COc1cc(/C=C/C=C2\CCC/C(=C\C=C\c3ccc(O)c(OC)c3)C2=O)ccc1O	label 1
COc1nc2c(cc1S(=O)(=O)c1ccccc1)CCc1c-2cnn1Cc1ccccc1	label 1
CC1C(/C=C/c2ccoc2)ON2CCCC12 (stereo unspecified)	label 1
O=c1c2cc(Br)ccc2nc(-c2ccccc2)n1NCC1(O)OCC(O)C(O)C1O (stereo unspecified)	label 1
O=c1oc2ccccc2cc1-c1csc(Nc2cc(Cl)cc(Cl)c2)n1	label 0
FC(F)(F)c1ccc2c(c1)nc(Cc1ccc(Cl)c(Cl)c1)n2CC1CCCN2CCCCC12 (stereo unspecified)	label 1
Fc1c[c-]c(-c2ccccn2)c(F)c1.[CH3-].[Pt+2].c1ccc([PH+](c2ccccc2)c2ccccn2)cc1	label 0
CCOC(=O)C12CCSC1C1(C#N)C(C#N)=CC2(N=P(c2ccccc2)(c2ccccc2)c2ccccc2)n2c(=O)n(-c3ccccc3)c(=O)n21 (stereo unspecified)	label 1
COc1ccccc1-c1ccc2nc(NC(=O)Nc3cc(C(F)(F)F)cc(C(F)(F)F)c3)sc2c1	label 0
CN1C(=O)N(C)C2C1NN=c1s/c(=C\c3c[nH]c4ccccc34)c(=O)n12 (stereo unspecified)	label 1
CNS(=O)(=O)c1ccccc1C(=N)c1ccccc1	label 1
O=[N+]([O-])c1ccc(/C=N\Nc2ccc([N+](=O)[O-])cn2)cc1	label 1
COc1cc(/C=C2\N=C(c3ccccc3)N(c3nc4cc(C)c(C)cc4s3)C2=O)cc(OC)c1OC	label 1
C=C1C(=O)CCC1C(=O)O (stereo unspecified)	label 1
COc1cc2c(cc1OC)C(=O)Cc1ccc3c(c1CNCC2)OCO3	label 1
C=CC(=O)NCCOc1cccc(Nc2cc(NCCCNC(=O)C3CCC3)c(Br)cn2)c1	label 0
O=C(C[C@@]1(O)C(=O)Nc2c(Cl)ccc(Cl)c21)c1ccc(C2CC2)cc1	label 0
CC(C)=CCc1c(O)ccc2c1OC1c3ccc(O)c(CC=C(C)C)c3OCC21 (stereo unspecified)	label 0
O=S(Nc1ccccc1)c1ccc(-c2ccccc2)cc1 (stereo unspecified)	label 1
Nc1c(S(=O)(=O)O)cc(Nc2cccc(S(N)(=O)=O)c2)c2c1C(=O)c1ccccc1C2=O	label 1
Cc1ccc(/C=N/Nc2cc(C)c3ccccc3n2)s1	label 1
C=CCC(N[C@@H](CO)c1ccccc1)c1ccccn1 (stereo partly specified)	label 1
CC1=CSC(O)(c2ccc(Cl)cc2)c2noc(=O)n21 (stereo unspecified)	label 1
COCOc1cc(OC)c(Br)cc1C/C(=N/O)C(=O)OC	label 1
Cc1coc2c1CC1OC1(C)CCC1OC1(C)C2 (stereo unspecified)	label 1
COC(=O)/C=C\[C@@H]1[C@H](C)N1S(=O)(=O)c1ccc(C)cc1 (stereo partly specified)	label 1
CCCCCCCCCCCCOC1C(CNCC2OC3OC(C)(C)OC3C2NC(=O)Nc2ccc(C(F)(F)F)cc2)OC2OC(C)(C)OC21 (stereo unspecified)	label 0
